System: HEK-293T
procedureText: Multiplex assay against HEK293T
Format: toxicity, cell-based
studyConditions: human, 48 h, 10 µM, compound concentration 10 uM, replicate 1
The following compounds are listed with their measured Population Healthy Nuclei (%) values.
measurementType: Population Healthy Nuclei (%)

compound | u | result
COc1ccc2[nH]c(I)c(CCNC(C)=O)c2c1 | % | 77
CN1CCN2c3ccccc3Cc3ccccc3C2C1.Cl (stereo not given) [MIANSERIN HYDROCHLORIDE] | % | 76
N[C@](CC1c2ccccc2Oc2ccccc21)(C(=O)O)[C@H]1C[C@@H]1C(=O)O | % | 78
Cc1nn(C)c2nc(NNC(=O)Nc3cc(Cl)nc(Cl)c3)cc(C(C)C)c12 | % | 72
Cc1cc(=O)n(C)c2cc(N3C(=O)CC[C@H](NS(=O)(=O)CC(C)C)[C@H]3c3ccc(Cl)cc3)ccc12 | % | 77
